Hey, just so you know, these numbers are from ChEMBL document CHEMBL1201862.

TARGET_SYSTEM: Ataxin-2 (Homo sapiens)
PROTOCOL_DESCRIPTION: qHTS for Inhibitors of ATXN expression.
Type: functional
About 2,100 (0.53%) of roughly 400,000 compounds were called active. Not shown: some 14% with an inconclusive outcome. No rule for the calls is given here. Shown is part of a subset that was picked to be rich in actives.
The reply should name one outcome from 1 for active, -1 for inactive

[ask] State the result this test recorded for CCOC(=O)COc1ccccc1/C=C\[N+](=O)[O-] .
[reply] 1

[ask] Quick one: N#Cc1ccccc1Cn1cc(/C=N/Nc2ccc([N+](=O)[O-])cn2)c2ccccc21
[reply] -1

[ask] Quick one: O=C(Cn1cc(/C=C\[N+](=O)[O-])c2ccccc21)Nc1ccccc1
[reply] 1

[ask] Quick one: Cc1cc(S(=O)(=O)c2ccc([N+](=O)[O-])cn2)ccc1Br
[reply] 1

[ask] Quick one: Cc1cc(Sc2ccc([N+](=O)[O-])cn2)ccc1Br
[reply] -1

[ask] Quick one: Cc1nc2c(ncn2-c2ccccc2)c(=O)n1NC(=O)CN1CCCC1
[reply] -1

[ask] Quick one: CCOC(=O)N/N=C/c1cn(CCCOc2ccc(C)cc2)c2ccccc12
[reply] -1

[ask] Quick one: Cc1c(C)c(C)c(C(=O)C2CCN(c3ccc([N+](=O)[O-])cn3)CC2)c(C)c1C
[reply] -1
